protocol description: soluble fraction after stress (log2 fold change); higher = more stays soluble; pooled small domains, quantitative proteomics
run conditions: stress: pH 4
Classification field: enter criterion met for soluble fraction (log2) values not below -0.2, criterion not met for values below it.

polymer sequence: HMISESLLDEIPGLGETRRNSLLREFGSVAMIRKASAEEIASRVRGIGAEFAAAIHDFLQTH
class label: criterion met
//
polymer sequence: HMDLRVKRTNKMIMEAFIHLVEQKGYDNITVQEIADEAMINRATFYAHFKDKQDLYDHIFKQAI
class label: criterion not met
//
polymer sequence: HMFEFFKGIYSISLLKKDGIFFVTFKDENKEAVKHIFPEKPTALELGIKVMEMFEYKERYDGII
class label: criterion not met
//
polymer sequence: HMSAPQKWDGSLQDFIRFKQEAKTLMDNIPNKRLALNAILETISDGKMRKRLAKYDGPESALKSLELEFGN
class label: criterion met
//
polymer sequence: HMGRYDWIEQIDDPVLAERLKHLTEDDLELLTRYVFEDATQKELASQYGIGQQSVSKRLKKLKSFLTK
class label: criterion not met
//
polymer sequence: HMKGTVLAPGIILNADDQRFTYLQEDVASVAKDGAAIVLKQGDEVDFIADGQTAKQIYLTKT
class label: criterion met
//
polymer sequence: HMNLAPLLTEYVQINFRRASEMKTYLEQANLISERGFLLADDQTNILMVRETGASIEEIRRTLNRF
class label: criterion not met
//
polymer sequence: HMEELLVAVKADGSIWADGRPITPDGLASFIDSKPADAVLNLAVDKKAPFAAFVKVVDVAKEKKSGRFVIR
class label: criterion met
